Values from patent US20250213558A1

Target: Human Cav3.1 calcium channel (Homo sapiens, UniProt O43497)
Construct: expressed in transfected cells; host or cells: HEK-293 natClytin/TASK1+Cav3.1 cell line
Sequence (O43497 whole entry): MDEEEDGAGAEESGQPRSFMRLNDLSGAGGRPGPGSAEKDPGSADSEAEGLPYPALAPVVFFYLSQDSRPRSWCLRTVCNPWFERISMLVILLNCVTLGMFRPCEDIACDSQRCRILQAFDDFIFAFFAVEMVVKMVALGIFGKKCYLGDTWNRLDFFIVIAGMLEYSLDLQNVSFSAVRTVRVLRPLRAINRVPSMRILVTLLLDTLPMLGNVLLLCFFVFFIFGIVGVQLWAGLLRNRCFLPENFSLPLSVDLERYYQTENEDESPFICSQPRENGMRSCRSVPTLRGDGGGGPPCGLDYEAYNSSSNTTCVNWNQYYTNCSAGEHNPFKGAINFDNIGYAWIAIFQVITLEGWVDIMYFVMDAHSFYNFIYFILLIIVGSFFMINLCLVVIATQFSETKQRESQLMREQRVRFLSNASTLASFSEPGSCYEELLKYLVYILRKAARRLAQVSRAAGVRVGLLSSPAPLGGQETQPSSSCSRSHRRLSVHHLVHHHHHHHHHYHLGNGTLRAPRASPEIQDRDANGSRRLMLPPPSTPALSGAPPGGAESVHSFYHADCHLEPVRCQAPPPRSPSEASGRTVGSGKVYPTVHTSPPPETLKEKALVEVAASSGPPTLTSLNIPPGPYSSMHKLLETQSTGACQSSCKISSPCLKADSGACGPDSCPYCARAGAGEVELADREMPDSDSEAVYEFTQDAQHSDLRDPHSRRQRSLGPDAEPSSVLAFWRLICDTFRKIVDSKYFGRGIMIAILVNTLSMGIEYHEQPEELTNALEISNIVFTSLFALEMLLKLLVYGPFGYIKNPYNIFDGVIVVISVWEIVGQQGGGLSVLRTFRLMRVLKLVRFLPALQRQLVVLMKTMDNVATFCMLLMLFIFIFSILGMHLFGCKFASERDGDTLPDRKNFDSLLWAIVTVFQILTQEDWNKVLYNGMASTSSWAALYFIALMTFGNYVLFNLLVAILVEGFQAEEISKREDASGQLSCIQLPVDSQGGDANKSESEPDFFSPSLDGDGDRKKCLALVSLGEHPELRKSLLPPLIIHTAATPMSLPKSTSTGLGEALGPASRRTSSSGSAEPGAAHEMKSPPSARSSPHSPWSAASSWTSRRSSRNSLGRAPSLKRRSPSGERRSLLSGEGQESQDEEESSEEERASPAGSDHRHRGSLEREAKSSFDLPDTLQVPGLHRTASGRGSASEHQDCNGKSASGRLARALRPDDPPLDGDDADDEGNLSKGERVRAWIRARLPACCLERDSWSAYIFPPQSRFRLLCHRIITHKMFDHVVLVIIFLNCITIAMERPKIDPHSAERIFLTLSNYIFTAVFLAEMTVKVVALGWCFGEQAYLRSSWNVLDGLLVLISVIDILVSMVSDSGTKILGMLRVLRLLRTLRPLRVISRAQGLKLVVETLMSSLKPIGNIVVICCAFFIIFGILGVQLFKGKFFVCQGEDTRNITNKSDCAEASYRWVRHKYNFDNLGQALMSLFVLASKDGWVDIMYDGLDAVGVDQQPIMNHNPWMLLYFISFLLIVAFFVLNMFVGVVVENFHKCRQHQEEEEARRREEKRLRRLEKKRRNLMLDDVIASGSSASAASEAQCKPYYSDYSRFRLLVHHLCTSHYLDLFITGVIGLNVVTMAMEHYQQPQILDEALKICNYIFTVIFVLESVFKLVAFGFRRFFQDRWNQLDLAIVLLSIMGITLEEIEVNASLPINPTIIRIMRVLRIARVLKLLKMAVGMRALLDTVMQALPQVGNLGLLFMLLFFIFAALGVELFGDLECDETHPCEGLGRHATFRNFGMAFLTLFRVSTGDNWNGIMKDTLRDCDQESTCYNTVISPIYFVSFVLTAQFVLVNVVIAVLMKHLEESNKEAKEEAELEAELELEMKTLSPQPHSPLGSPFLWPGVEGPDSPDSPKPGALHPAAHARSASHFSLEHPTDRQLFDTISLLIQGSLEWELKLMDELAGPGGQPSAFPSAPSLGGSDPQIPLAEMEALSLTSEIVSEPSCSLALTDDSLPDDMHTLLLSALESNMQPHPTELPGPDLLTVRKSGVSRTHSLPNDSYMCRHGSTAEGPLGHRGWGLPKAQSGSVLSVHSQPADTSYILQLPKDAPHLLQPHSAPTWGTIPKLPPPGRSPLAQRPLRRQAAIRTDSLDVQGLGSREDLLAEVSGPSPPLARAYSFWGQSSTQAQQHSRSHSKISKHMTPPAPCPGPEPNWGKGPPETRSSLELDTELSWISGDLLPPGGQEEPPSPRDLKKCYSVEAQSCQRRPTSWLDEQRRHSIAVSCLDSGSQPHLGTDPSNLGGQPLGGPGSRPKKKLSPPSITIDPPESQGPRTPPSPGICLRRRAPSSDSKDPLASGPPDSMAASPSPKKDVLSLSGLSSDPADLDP
Assay: Human Cav3.1 calcium channel patch clamp assay (SyncroPatch 384PE; single point and IC50, voltage dependent block)
Format: cell-based
Settings: voltage dependent block (VDB); HEK-293 natClytin/TASK1+Cav3.1 cell line; read-out: Cav3.1 IC50
pIC50: −log10 of the molar value.
Class Criterion met: pIC50 at least 6. Class Criterion not met: pIC50 below 6.

Solved entries:
OC1(CCN2C3CC2CN(Cc2nc4c(Cl)cc(F)cc4[nH]2)C3)CCCC1    Criterion met
COc1cc(NC(=O)CN2C[C@@H]3C[C@H]2CN3CC(=O)NC2(C(F)(F)F)CC2)cc(F)c1F    Criterion met
N#CC1(CN2C3CC2CN(Cc2nc4c(Cl)ccc(F)c4[nH]2)C3)CCC(F)(F)CC1    Criterion not met
CC1(C(=O)OCCN2C3CC2CN(Cc2nc4c(Cl)cc(F)cc4[nH]2)C3)CC1    Criterion met
CC1(C)CCN1C(=O)CN1C2CCC1CN(Cc1nc3c(Cl)cc(F)cc3[nH]1)C2    Criterion met
COc1cc(NC(=O)CN2CC3CC(C2)N3CC(=O)NC(C)(C)C)cc(F)c1F    Criterion met
CC1(C)CC(CN2C[C@@H]3C[C@H]2CN3CC(=O)NC23CC4CC(CC(C4)C2)C3)CCO1 (stereo partly shown)    Criterion not met
CC(C(=O)NC(C)(C)C)N1C2CC1CN(CC(=O)Nc1ccc(F)c(OC(F)F)c1)C2 (stereo not shown)    Criterion met

Data request: State whether the measured pIC50 reaches 6, counting equality as reaching it, for CC(C(=O)Nc1ccc(F)c(Cl)c1)N1C[C@@H]2C[C@H]1CN2CC(=O)NC(C)(C)C (stereo partly shown)
Data returned: Criterion met

Data request: State whether the measured pIC50 reaches 6, counting equality as reaching it, for CC(C)(C)NC(=O)CN1C2CC1CN(CC(=O)Nc1ccc(F)c(OC(F)F)c1)C2
Data returned: Criterion met

Data request: State whether the measured pIC50 reaches 6, counting equality as reaching it, for CC(C)(C)CCN1CCN(Cc2nc3c(Cl)cc(F)cc3[nH]2)CC1
Data returned: Criterion met

Data request: State whether the measured pIC50 reaches 6, counting equality as reaching it, for CC(C)(NC(=O)CN1CC2CC1CN2CC(=O)Nc1ccc(F)c(Cl)c1)C(F)(F)F (stereo not shown)
Data returned: Criterion met

Data request: State whether the measured pIC50 reaches 6, counting equality as reaching it, for CC(C)(C)NC(=O)CN1C[C@@H]2C[C@H]1CN2CC(=O)NC1CCCCC1
Data returned: Criterion not met

* * *

I'd appreciate it if you could supply log10 of IC50 values for the items below.
Biological target: Human Cav3.1 calcium channel (Homo sapiens)
Construct: expressed in transfected cells; host or cells: HEK-293 natClytin/TASK1+Cav3.1 cell line
Experiment: Human Cav3.1 calcium channel patch clamp assay (SyncroPatch 384PE; single point and IC50, voltage dependent block)
Format: cell-based
Details: voltage dependent block (VDB); HEK-293 natClytin/TASK1+Cav3.1 cell line; read-out: Cav3.1 IC50
Hey, these are logged values: log10 of IC50, nM being the unit before logging.

O=C(CN1CC2CC(C1)N2CC(=O)NC1(C(F)(F)F)CC1)Nc1cc(F)c(F)c(OC(F)F)c1 [Compound 361]    2.10
O=C(NCCN1C2CC1CN(Cc1nc3c(Cl)cc(F)cc3[nH]1)C2)C1(C(F)(F)F)CC1 [Compound 135]    2.19
O=C(CN1CC2CC1CN2CC(=O)NC1(C(F)(F)F)CC1)Nc1cc(F)cc(Cl)c1 (stereo not shown) [Compound 223]    3.10
CC(C)(C)NC(=O)CN1C[C@H]2COC[C@@H](C1)[C@H]2CNC(=O)c1cc(F)cc(Cl)c1 [Compound 370]    3.24
COc1cc(F)cc(NC(=O)CN2CC3CC(C2)N3CC(=O)NC2(C(F)(F)F)CC2)c1 [Compound 333]    2.25

Dear colleague, could you send me log10 of IC50 for each of the items below? Thanks.
1. Fc1cc(Cl)c2nc(CN3CCN(CC(F)(F)C4CCCC4)CC3)[nH]c2c1 [Compound 160]
2. CC(C)(NC(=O)CN1C[C@@H]2C[C@H]1CN2CC(=O)Nc1ccc(F)c(Cl)c1)C(F)(F)F [Compound 24]
3. CC(C)(C)NC(=O)CN1C2CC1CN(CC(=O)Nc1cc(F)cc(Cl)c1)C2 [Compound 10]
4. CC(C)(C)NC(=O)CN1CCCN(Cc2nc3c(Cl)cc(F)cc3[nH]2)CC1 [Compound 70]
5. COc1ccc(F)c(NC(=O)CN2CC3CC(C2)N3CC(=O)NC(C)(C)C)c1 [Compound 222]
6. CC(C)(C)NC(=O)CN1C[C@@H]2C[C@H]1CN2C(=O)NC12CC3CC(CC(C3)C1)C2 [Compound 304]
7. CC(C)(C)NC(=O)CN1C[C@H]2COC[C@@H](C1)[C@H]2CC(=O)Nc1cc(F)cc(Cl)c1 [Compound 371]
8. Cc1cc(F)cc(NC(=O)CN2CC3CC(C2)N3CC(=O)NC2(C(F)(F)F)CC2)c1 [Compound 335]

Data returned:
1. 2.81
2. 2.27
3. 2.16
4. 2.74
5. 3.04
6. 3.68
7. 3.29
8. 2.53

Dear colleague, could you send me log10 of IC50 for each of the items below? Thanks.
1. CC(C)(C)NC(=O)CN1C[C@@H]2C[C@H]1CN2CC(=O)NCC12CC3CC(CC(C3)C1)C2 [Compound 285]
2. CC(C)(C)NC(=O)CN1C2CCC1CN(Cc1c[nH]c(-c3ccccc3)n1)C2 [Compound 197]

Data returned:
[3.10, 3.19]
